- Test system: ncRNAs (SEQ ID NO 28-89)
- methodDescription: ncRNA arrays of melanocytes, keratinocytes, normal skin, melanoma cell lines and patient samples
- Set-up: species or system human
- testConditions: melanoma patient 8 sample compared to normal skin
- Description: An ncRNA array platform that contains over 10,000 putative (>200 nt) ncRNAs including most of the known ncRNAs in mouse and human was conducted to evaluate ncRNAs within melanoma. Lack of coding potential was estimated by an algorithm that scores various characteristics of protein-coding genes, including open reading frame length, synonymous/non-synonymous base substitution rates and similarity to known proteins. […]
Items are presented alongside their recorded ncRNA array expression, patient 8.

substance | ncRNA array expression, patient 8
SEQ ID NO 52 (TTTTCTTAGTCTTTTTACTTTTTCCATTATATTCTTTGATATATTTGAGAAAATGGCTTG; listed as DNA, chemistry not given here; listed as Homo sapiens) | 2.426
SEQ ID NO 39 (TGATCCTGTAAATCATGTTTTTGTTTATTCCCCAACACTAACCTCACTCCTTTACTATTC; listed as DNA, chemistry not given here; listed as Homo sapiens) | −0.9282
SEQ ID NO 42 (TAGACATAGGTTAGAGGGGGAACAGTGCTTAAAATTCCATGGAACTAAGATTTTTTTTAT; listed as DNA, chemistry not given here; listed as Homo sapiens) | −2.073
